assay: Clearance in Sprague-Dawley rat at 1 mg/kg, iv and 5 mg/kg, po; assay type: ADME, organism-based; details: in vivo
Value type: clearance (mL/min/kg)

I: O=C(O)CN1C(=O)[C@@]2(CC(=O)N(Cc3cc(Cl)ccc3F)C2)c2cc(Cl)ccc21
II: O=C(O)CN1C(=O)[C@@]2(NC(=O)N(Cc3cc(Cl)ccc3F)C2=O)c2cc(Cl)ccc21
INPUT: Kindly identify the item with the lower clearance figure among these two: I and II Respond using the label that marks the chosen record.
OUTPUT: II

---

test: Oral bioavailability in monkey; type: ADME, organism-based, Macaca mulatta; settings: rhesus monkey, in vivo
Value type: bioavailability (%)
Kindly answer with a numeric value in %, unit omitted.

INPUT: For the compound O=C(O)CN1C(=O)[C@@]2(NC(=O)N(Cc3cc(Cl)ccc3F)C2=O)c2cc(Cl)ccc21 , give its measured bioavailability value.
OUTPUT: 10

---

assay: Apparent permeability of the compound in human Caco2 cells; assay type: ADME, cell-based; conditions: Caco-2
Value type: Papp (×10⁻⁶ cm/s)

Below are worked cases with known answers.
CN1C(=O)N(Cc2cc(Cl)ccc2F)C(=O)[C@]12C(=O)N(CC(=O)O)c1ccc(Cl)cc12: 0.6
O=C(O)CN1C(=O)[C@@]2(CC(=O)N(Cc3cc(Cl)ccc3F)C2)c2cc(Cl)ccc21: 1.8

I: O=C(O)CN1C(=O)[C@@]2(CC(=O)N(Cc3cc(Cl)ccc3F)C2=O)c2cc(Cl)ccc21
II: O=C(O)CN1C(=O)[C@@]2(NC(=O)N(Cc3cc(Cl)ccc3F)C2=O)c2cc(Cl)ccc21
INPUT: Between the two listed entries I and II , which has its Papp at the higher number? Respond using the label that marks the chosen record.
OUTPUT: I
(I: 26 ×10⁻⁶ cm/s, II: 0.2 ×10⁻⁶ cm/s)

---

test: Solubility of the compound in simulated gastric fluid; type: physicochemical
Value type: solubility (µg/mL)
Kindly answer with a numeric value in µg/mL, unit omitted.

INPUT: For the molecule O=C(O)CN1C(=O)[C@@]2(NC(=O)N(Cc3cc(Cl)ccc3F)C2=O)c2cc(Cl)ccc21 , give its measured solubility value.
OUTPUT: 10

---

assay: Solubility of the compound in fasted state simulated intestinal fluid
Value type: solubility (µg/mL)
Kindly answer with a numeric value in µg/mL, unit omitted.

INPUT: For the compound O=C(O)CN1C(=O)[C@@]2(NC(=O)N(Cc3cc(Cl)ccc3F)C2=O)c2cc(Cl)ccc21 , give its measured solubility value.
OUTPUT: 1500

---

experiment: Half life in human plasma; type: ADME, cell-free
Value type: half-life (h)

O=C(O)CN1C(=O)[C@@]2(CC(=O)N(Cc3ccccc3F)C2=O)c2cc(Cl)ccc21: 1
O=C(O)CN1C(=O)[C@@]2(CC(=O)N(Cc3cc(Cl)ccc3F)C2=O)c2cc(Cl)ccc21: 1

---

assay: Oral bioavailability in guinea pig; assay type: ADME, organism-based, Cavia porcellus; conditions: in vivo
Value type: bioavailability (%)
Kindly answer with a numeric value in %, unit omitted.

INPUT: For the compound O=C(O)CN1C(=O)[C@@]2(NC(=O)N(Cc3cc(Cl)ccc3F)C2=O)c2cc(Cl)ccc21 , give its measured bioavailability value.
OUTPUT: 7

---

test: Fraction unbound in human plasma; assay type: ADME, cell-free
Value type: fraction unbound

O=C(O)CN1C(=O)[C@@]2(NC(=O)N(Cc3cc(Cl)ccc3F)C2=O)c2cc(Cl)ccc21: 0.023
CN1C(=O)N(Cc2cc(Cl)ccc2F)C(=O)[C@]12C(=O)N(CC(=O)O)c1ccc(Cl)cc12: 0.02

---

test: Bioavailability in Sprague-Dawley rat administered by portal vein; assay type: ADME, organism-based; conditions: in vivo
Value type: bioavailability (%)
Kindly answer with a numeric value in %, unit omitted.

INPUT: For the molecule O=C(O)CN1C(=O)[C@@]2(NC(=O)N(Cc3cc(Cl)ccc3F)C2=O)c2cc(Cl)ccc21 , give its measured bioavailability value.
OUTPUT: 90

---

molecular target: Prostaglandin D2 receptor 2 (Homo sapiens, UniProt Q9Y5Y4); assay: Displacement of [3H]PGD2 from human CRTH2 receptor expressed in CHO cells after 90 mins by scintillation proximity assay
Sequence (Q9Y5Y4 whole entry): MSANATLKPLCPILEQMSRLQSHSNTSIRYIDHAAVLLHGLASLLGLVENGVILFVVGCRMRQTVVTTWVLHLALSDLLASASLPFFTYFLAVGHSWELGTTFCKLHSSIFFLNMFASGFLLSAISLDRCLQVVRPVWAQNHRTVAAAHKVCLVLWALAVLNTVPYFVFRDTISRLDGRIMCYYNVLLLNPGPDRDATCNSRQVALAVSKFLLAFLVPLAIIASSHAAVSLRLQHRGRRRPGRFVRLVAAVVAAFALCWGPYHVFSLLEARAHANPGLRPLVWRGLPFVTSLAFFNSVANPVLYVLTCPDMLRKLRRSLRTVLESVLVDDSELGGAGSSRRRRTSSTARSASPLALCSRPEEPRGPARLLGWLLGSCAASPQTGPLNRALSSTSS
pKi: −log10 of the molar value.
Value type: pKi

Cc1onc(-c2ccccc2)c1CN1C(=O)N(C)C2(C1=O)C(=O)N(CC(=O)O)c1ccc(Cl)cc12 (stereo unspecified): 6.96
CN1C(=O)N(Cc2nc3ccccc3s2)C(=O)C12C(=O)N(CC(=O)O)c1ccc(Cl)cc12 (stereo unspecified): 6.12
Cc1onc(-c2ccccc2)c1CN1C(=O)NC2(C1=O)C(=O)N(CC(=O)O)c1ccc(Cl)cc12 (stereo unspecified): 8.15
CC(C)c1nc(CN2C(=O)N(C)C3(C2=O)C(=O)N(CC(=O)O)c2ccc(Cl)cc23)cs1 (stereo unspecified): 6.31

I: O=C(O)CN1C(=O)C2(NC(=O)N(Cc3ccccc3F)C2=O)c2cc(Cl)ccc21 (stereo unspecified)
II: CN1C(=O)N(Cc2cn(-c3ccccc3)nc2-c2ccccc2)C(=O)C12C(=O)N(CC(=O)O)c1ccc(Cl)cc12 (stereo unspecified)
INPUT: Between the two listed entries I and II , which has its pKi at the higher number? Respond using the label that marks the chosen record.
OUTPUT: II
(II: 7.02, I: 6.41)

---

experiment: Intrinsic clearance in rat liver microsomes; type: ADME, Microsome; conditions: read-out: CLH
Value type: microsomal CLint

INPUT: For the molecule CN1C(=O)N(Cc2cc(Cl)ccc2F)C(=O)[C@]12C(=O)N(CC(=O)O)c1ccc(Cl)cc12 , give its measured microsomal CLint value.
OUTPUT: < 10 µL/min/mg

---

assay: Drug degradation at pH 9 after 24 hrs; type: physicochemical; conditions: buffer, read-out: Drug degradation
Value type: degraded at 24 h (%)
Kindly answer with a numeric value in %, unit omitted.

INPUT: For the molecule O=C(O)CN1C(=O)[C@@]2(NC(=O)N(Cc3cc(Cl)ccc3F)C2=O)c2cc(Cl)ccc21 , give its measured degraded at 24 h value.
OUTPUT: 45

---

assay: Oral bioavailability in C57BL/6 mouse at 5 mg/kg; format: ADME, organism-based; conditions: in vivo
Value type: bioavailability (%)

P: CN1C(=O)N(Cc2cc(Cl)ccc2F)C(=O)[C@]12C(=O)N(CC(=O)O)c1ccc(Cl)cc12
Q: O=C(O)CN1C(=O)[C@@]2(NC(=O)N(Cc3cc(Cl)ccc3F)C2=O)c2cc(Cl)ccc21
INPUT: Kindly identify the item with the lower bioavailability figure among these two: P and Q Respond using the label that marks the chosen record.
OUTPUT: Q
(Q: 9%, P: 39%)

---

assay: Clearance in C57BL/6 mouse at 1 mg/kg, iv and 5 mg/kg, po; assay type: ADME, organism-based; details: in vivo
Value type: clearance (mL/min/kg)

CN1C(=O)N(Cc2cc(Cl)ccc2F)C(=O)[C@]12C(=O)N(CC(=O)O)c1ccc(Cl)cc12: 13.3

P: CN1C(=O)N(Cc2csc(-c3ccccc3)n2)C(=O)C12C(=O)N(CC(=O)O)c1ccc(Cl)cc12 (stereo not drawn)
Q: O=C(O)CN1C(=O)[C@@]2(NC(=O)N(Cc3cc(Cl)ccc3F)C2=O)c2cc(Cl)ccc21
INPUT: Kindly identify the item with the lower clearance figure among these two: P and Q Respond using the label that marks the chosen record.
OUTPUT: Q
(Q: 13.3 mL/min/kg, P: 60.5 mL/min/kg)

---

# reported metabolised at 24 h; entries follow
assay: Drug degradation in human plasma after 24 hrs; format: ADME, cell-free; details: read-out: Drug degradation

O=C(O)CN1C(=O)[C@@]2(CC(=O)N(Cc3cc(Cl)ccc3F)C2)c2cc(Cl)ccc21: < 15%

INPUT: For the compound O=C(O)CN1C(=O)[C@@]2(NC(=O)N(Cc3cc(Cl)ccc3F)C2=O)c2cc(Cl)ccc21 , give its measured metabolised at 24 h value.
OUTPUT: < 15%

---

molecular target: Aldo-keto reductase family 1 member B1 (Homo sapiens, UniProt P15121)
Value type: IC50 (nM)
Kindly answer with a numeric value in nM, unit omitted.

INPUT: For the compound CN1C(=O)N(Cc2cc(Cl)ccc2F)C(=O)[C@]12C(=O)N(CC(=O)O)c1ccc(Cl)cc12 , give its measured IC50 value.
OUTPUT: 150

---

biological target: Cytochrome P450 3A4 (Homo sapiens, UniProt P08684)
Sequence (P08684 whole entry): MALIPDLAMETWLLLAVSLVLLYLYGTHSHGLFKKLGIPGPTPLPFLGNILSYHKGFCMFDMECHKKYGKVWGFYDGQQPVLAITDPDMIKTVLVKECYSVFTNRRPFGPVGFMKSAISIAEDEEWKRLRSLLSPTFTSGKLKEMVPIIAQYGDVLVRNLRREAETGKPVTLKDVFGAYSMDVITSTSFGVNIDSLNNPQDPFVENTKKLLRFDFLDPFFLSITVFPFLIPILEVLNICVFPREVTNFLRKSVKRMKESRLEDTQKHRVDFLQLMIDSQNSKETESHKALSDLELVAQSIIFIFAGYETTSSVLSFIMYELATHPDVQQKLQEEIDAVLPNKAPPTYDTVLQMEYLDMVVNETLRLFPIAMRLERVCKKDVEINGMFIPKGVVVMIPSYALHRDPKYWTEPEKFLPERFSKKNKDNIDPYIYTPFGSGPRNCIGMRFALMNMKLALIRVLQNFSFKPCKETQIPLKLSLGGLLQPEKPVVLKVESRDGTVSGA
pIC50: −log10 of the molar value.
Value type: pIC50

INPUT: For the compound CN1C(=O)N(Cc2cc(Cl)ccc2F)C(=O)[C@]12C(=O)N(CC(=O)O)c1ccc(Cl)cc12 , give its measured pIC50 value.
OUTPUT: < 5.00

---

target: Prostaglandin D2 receptor 2 (Homo sapiens); experiment: Displacement of [3H]PGD2 from human CRTH2 receptor expressed in CHO cells after 90 mins by scintillation proximity assay
pKi: −log10 of the molar value.
Value type: pKi

Below are worked cases with known answers.
COc1c(C)cnc(CN2C(=O)N(C)C3(C2=O)C(=O)N(CC(=O)O)c2ccc(Cl)cc23)c1C (stereo not drawn): 6.55
O=C(O)CN1C(=O)C2(NC(=O)N(Cc3cc(Cl)ccc3F)C2=O)c2cc(Cl)ccc21 (stereo not drawn): 7.55
CCN1C(=O)N(Cc2cc(Cl)ccc2F)C(=O)[C@]12C(=O)N(CC(=O)O)c1ccc(Cl)cc12: 6.59

P: O=C(O)CN1C(=O)[C@@]2(NC(=O)N(Cc3cc(Cl)ccc3F)C2=O)c2cc(Cl)ccc21
Q: CN1C(=O)N(Cc2cc(F)ccc2F)C(=O)C12C(=O)N(CC(=O)O)c1ccc(Cl)cc12 (stereo not drawn)
INPUT: Kindly identify the item with the lower pKi figure among these two: P and Q Respond using the label that marks the chosen record.
OUTPUT: Q

a: CCCN1C(=O)N(Cc2cc(Cl)ccc2F)C(=O)[C@]12C(=O)N(CC(=O)O)c1ccc(Cl)cc12
b: CN1C(=O)N(Cc2cc(Cl)ccc2F)C(=O)[C@]12C(=O)N(CC(=O)O)c1ccc(Cl)cc12
INPUT: Between the two listed entries a and b , which has its pKi at the higher number? Respond using the label that marks the chosen record.
OUTPUT: b

Attribution: ChEMBL document CHEMBL2040789
